# measured_target: T1, recombinant human IL-23R/Fc chimera (R&D Systems) (human, UniProt Q5VWK5 24-353)
# T1 construct: bought; also called human IL-23R/Fc fusion protein; rhIL23RFc
# T1 sequence (looked up): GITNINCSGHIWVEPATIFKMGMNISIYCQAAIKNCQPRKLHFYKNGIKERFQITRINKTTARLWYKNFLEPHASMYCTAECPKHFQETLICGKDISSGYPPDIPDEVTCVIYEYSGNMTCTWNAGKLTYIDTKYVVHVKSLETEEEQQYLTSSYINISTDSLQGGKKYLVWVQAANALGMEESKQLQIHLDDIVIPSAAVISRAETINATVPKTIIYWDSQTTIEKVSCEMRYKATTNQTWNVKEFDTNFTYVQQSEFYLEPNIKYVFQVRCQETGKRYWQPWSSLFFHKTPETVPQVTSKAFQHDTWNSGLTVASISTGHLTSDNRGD
# protocol: competition ELISA against IL-23
measured_attribute: Ratio IC50 to 056-53.H4E IC50 (ratio)
Express the result in ratio but write the number alone.

Consider the following illustrative entries.
1. 101-113-6C108 ATRIMER (designed binder) EPPTQKPKKIVNAKKDVVNTKMFEELKSRLDTLAQEVALLKEQQALQTVCLKGTKVHMKCFLAFTQTKTFHEASEDCISRGGTLSTPQTGSENDALYEYLRQSVGNEAEIWLGLNGSALTNTWVDMTGARIAYKNWEPPPPHHPMGGFGVFGENCAVLSGAANGKWFDKRCRDQLPYICQFGIV: 0.9
2. 105-08-1C6 ATRIMER (designed binder) EPPTQKPKKIVNAKKDVVNTKMFEELKSRLDTLAQEVALLKEQQALQTVCLKGTKVHMKCFLAFTQTKTFHEASEDCISRGGTLSTPQTGSENDALYEYLRQSVGNEAEIWLGLNGSALTDTWVDMTGARIAYKNWETEITAQPDGGFGYFGENCAVLSGAANGKWFDKRCRDQLPYICQFGIV: 2

Read off the recorded Ratio IC50 to 056-53.H4E IC50 for 105-08-1B10 ATRIMER (designed binder) EPPTQKPKKIVNAKKDVVNTKMFEELKSRLDTLAQEVALLKEQQALQTVCLKGTKVHMKCFLAFTQTKTFHEASEDCISRGGTLSTPQTGSENDALYEYLRQSVGNEAEIWLGLNGSRHTDTWVDMTGARIAYKNWETEITAQPDGGFGYFGENCAVLSGAANGKWFDKRCRDQLPYICQFGIV
4.7
